Values of IC50 for Glycogen synthase kinase-3 alpha (Homo sapiens), collected from a number of published sources:
quantity: IC50 (nM)

>>> df
                                   compound  quantity  observed_value
0  CC(C)(C)c1cnc(CSc2cnc(NC(=O)C3CCN(CC(=O)NCCOCCOCCOCCNc4cccc5c4C(=O)N(C4CCC(=O)NC4=O)C5=O)CC3)s2)o1 (centres undefined)      IC50             8.2
1  OC1(c2ccccc2)CSC(=S)N1Cc1ccncc1 (centres undefined)      IC50            18.2
2  COc1cc(F)ccc1-c1ncnc(Nc2cccc(C[S@](C)(=N)=O)c2)n1      IC50            29.1
3  c1ccc(-c2n/c(=N/CCN3CCOCC3)sn2-c2ccccc2)cc1      IC50             880
